Recorded measurements of growth, one per entry
Tested on: SK-OV-3 ovarian
Assay procedure: NCI-60 one-dose screen, 48 h (100 = growth as untreated, 0 = no growth, -100 = all killed)
Cond: 10 µM unless noted
About 83,000 compounds went through this panel and 20% of them were active in at least one assay; those are over-represented in the sample as a whole.
Report only the number, with the unit % understood.

COc1ccc(/C=C2\CN(C(=O)C(Cl)Cl)C/C(=C\c3ccc(OC)c(OC)c3)C2=O)cc1OC = 48.3
O=C(/C=C/C12c3ccccc3C(c3ccccc31)C1C(=O)NC(=O)C12)c1ccco1 (stereo unspecified) = 42.7
Clc1ccc2nn3c4ccccc4c(OCCN4CCOCC4)nc3c2c1 = 94.1
COc1ccc(OC)c(Nc2nnc(-c3cc(OC)c(OC)c(OC)c3)o2)c1 = 104
Cc1ccc(S(=O)(=O)OCC#CCOS(=O)(=O)c2ccc(C)cc2)cc1 = 98.3
Cc1nc2ccccc2c(/C=C/c2ccc(F)cc2)c1C(=O)/C=C/c1ccccc1 = 56

Query CC[C@@H](C(=O)[C@@H](C)[C@@H](O)[C@H](C)[C@@H]1O[C@@H]([C@@H](CC)C(=O)ONC(=O)c2ccccc2O)CC[C@@H]1C)C1O[C@]2(C=CC(=O)[C@]3(CC[C@@](C)([C@H]4CC[C@](O)(CC)[C@H](C)O4)O3)O2)[C@H](C)C[C@@H]1C (stereo partly specified) yields growth of 120

Query "O=C1O[C@@H](c2ccccc2Cl)[C@@H]2c3cc4c(cc3CCN12)OCO4" yields growth of 119

Query "Cc1ccccc1N1CCN(C(=S)c2ccccc2)CC1" yields growth of 98.1

Query "CSc1ccc2c3c(n(CCCn4ccnc4)c(=O)c2c1)-c1ccccc1C3=O" yields growth of 50.9

Query "Cc1nc(N/N=C/c2cn(-c3ccccc3)nc2-c2cc3ccccc3oc2=O)sc1N=Nc1ccccc1" yields growth of 109
